- Test system: 624824-186-R-J3-PDC multicell spheroids, viability
- measurement-description: Anticancer human tumor 624824-186-R-J3-PDC patient-derived colon adenocarcinoma cell line growth inhibition [PI3K]
- condition-description: second compound 0.0316 µM; first compound 0.001 µM; hits give low values
recorded-metric: viability, T/C

>>> print(df.to_string())
                                   molecule  result
0  Cn1ncnc1[C@H]1c2n[nH]c(=O)c3cc(F)cc(c23)N[C@@H]1c1ccc(F)cc1 + COc1c(OCCCN2CCOCC2)ccc2c3n(c(=NC(=O)c4cnc(N)nc4)nc12)CCN3    103%

Provide viability, T/C values for the following items, in order.
1. CC(=O)c1c(C)c2cnc(Nc3ccc(N4CCNCC4)cn3)nc2n(C2CCCC2)c1=O + Cc1nc(NC(=O)N2CCCC2C(N)=O)sc1-c1ccnc(C(C)(C)C(F)(F)F)c1
2. Cn1ncnc1[C@H]1c2n[nH]c(=O)c3cc(F)cc(c23)N[C@@H]1c1ccc(F)cc1 + CC(Nc1ccc2c(c1)OCCn1cc(N3C(=O)OCC3C(F)F)nc1-2)C(N)=O
3. CC(=O)c1c(C)c2cnc(Nc3ccc(N4CCNCC4)cn3)nc2n(C2CCCC2)c1=O + CC(Nc1ncnc2nc[nH]c12)c1cc2cccc(Cl)c2c(=O)n1-c1ccccc1
4. CC(=O)c1c(C)c2cnc(Nc3ccc(N4CCNCC4)cn3)nc2n(C2CCCC2)c1=O + COc1c(OCCCN2CCOCC2)ccc2c3n(c(=NC(=O)c4cnc(N)nc4)nc12)CCN3
5. Cn1ncnc1[C@H]1c2n[nH]c(=O)c3cc(F)cc(c23)N[C@@H]1c1ccc(F)cc1 + CC(Nc1ncnc2nc[nH]c12)c1cc2cccc(Cl)c2c(=O)n1-c1ccccc1

Solution:
1: 102%; 2: 99.7%; 3: 96.8%; 4: 106%; 5: 101%

###

For each entry below, report its viability, T/C value.
- Tested on: 624824-186-R-J3-PDC multicell spheroids, viability
- measurement-description: Anticancer human tumor 624824-186-R-J3-PDC cell line growth inhibition [PI3K];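 further: luminescent signal used as a stand-in for spheroid viability; spheroids exposed to agents for seven days before luminescence read; percent viability relative to DMSO vehicle control wells taken as 100%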
- condition-description: second compound 1 µM; first compound 0.1 µM; hits give low values
Numbers only, in %.

Worked examples, 3 compounds total:
compound	units-of-measure	viability, T/C
C[C@@H](NC(=O)c1ncnc(N)c1Cl)c1ncc(C(=O)Nc2cc(C(F)(F)F)c(Cl)cn2)s1 + COc1c(OCCCN2CCOCC2)ccc2c3n(c(=NC(=O)c4cnc(N)nc4)nc12)CCN3	%	31.5
CC(C)NCC(C(=O)N1CCN(c2ncnc3c2C(C)CC3O)CC1)c1ccc(Cl)cc1 (centres undefined) + Cc1nc(NC(=O)N2CCCC2C(N)=O)sc1-c1ccnc(C(C)(C)C(F)(F)F)c1	%	105
CC(C)NCC(C(=O)N1CCN(c2ncnc3c2C(C)CC3O)CC1)c1ccc(Cl)cc1 (centres undefined) + COc1c(OCCCN2CCOCC2)ccc2c3n(c(=NC(=O)c4cnc(N)nc4)nc12)CCN3	%	28.5

Problem: Recorded viability, T/C of C#Cc1c(F)ccc2cc(O)cc(-c3ncc4c(N5CC6CCC(C5)N6)nc(OCC56CCCN5CC(F)C6)nc4c3F)c12 (centres undefined) + Cc1nc(NC(=O)N2CCCC2C(N)=O)sc1-c1ccnc(C(C)(C)C(F)(F)F)c1 , please.
Solution: 97.4
